# experimentNotes: Serum noribogaine pharmacokinetics in patients, Phase IB study
# Format: in vivo, human
# conditionDetails: human; Cohort 1 (60 mg), opioid-dependent patients, serum, mean ± SD
endpointLabel: AUC(0-t) (ng·h/mL)
Express the result in ng·h/mL but write the number alone.

Recorded AUC(0-t) for CC[C@H]1CC2C[C@H]3c4[nH]c5ccc(O)cc5c4CCN(C2)C13 , please?
2020

---

# experimentNotes: Serum noribogaine pharmacokinetics in patients, Phase IB study
# Format: in vivo, human
# conditionDetails: human; Cohort 3 (180 mg), opioid-dependent patients, serum, mean ± SD; read-out: AUC(0-¥)
endpointLabel: AUC (µg·h/mL)
Express the result in µg·h/mL but write the number alone.

Recorded AUC for CC[C@H]1CC2C[C@H]3c4[nH]c5ccc(O)cc5c4CCN(C2)C13 [Noribogaine] , please?
6.89
